System: Tov-21-G
Assay: Primary qHTS to identify gynecologic anti-cancer compounds using libraries of approved drugs and bioactive compounds (AID 1345084); note: % is set by controls: 0 for no effect and ±100 for the full control effect; nearly all actives have a fitted effect of over 55% in size
Details: Gynecologic cancer cell panel viability, ATPlite luminescence, 48 h; series mostly up to 57.5 µM
Records with an inconclusive call do not appear. Activity calls are given as the source filed them. Calls come from the whole dose curve; as a rule, active = well fitted cell-killing curve with a large enough effect; inconclusive = small, poorly fitted or top-dose-only effect, or effect the other way; inactive = flat fitted curve, though single readings scatter.
measurement.type: activity change, negative = cytotoxicity

Example entries and their recorded answers appear below.
CC(C)(O)c1ccc2c(c1)C(O)CC1C(C)(C(=O)O)CCCC21C (stereo not drawn) | inactive
CC(O)C(O)/C=C/C=C/C(=O)O[C@@H]1C=C2COC(=O)[C@]2(O)[C@@]2(C)CCCC(C)(C)C12 (stereo partly drawn) | inactive
CC(C)NC[C@H](O)COc1ccc(CCOCC2CC2)cc1 | inactive
C=C1CC2[C@]3(C)C(=C(O)C(=O)[C@@]2(C)[C@]2(C(=O)OC)C(=O)C(C)OC(=O)[C@@]12C)C(C)(C)C(=O)CC3O (stereo partly drawn) | inactive
CC(C)(O)C1CCC2(C)C3C(O)C4C(C13)C42CO (stereo not drawn) | inactive

// returns reported activity change, negative = cytotoxicity for input O=c1c2cccnc2n(-c2cccc([N+](=O)[O-])c2)c(=O)n1Cc1ccncc1
inactive

// returns reported activity change, negative = cytotoxicity for input CC1(O)CCC2C(C(=O)O)=COC(OC3OC(CO)C(O)C(O)C3OC(=O)/C=C/c3ccc(O)cc3)C21 (stereo not drawn)
inactive

// returns reported activity change, negative = cytotoxicity for input CCC/C=C/C(=O)O[C@H]1CC(C)(C)CC2[C@]13[C@H](O)O[C@@]21CCC2[C@@]4(C)CC[C@H](O[C@@H]5O[C@H](C(=O)O)[C@@H](O)[C@H](O[C@@H]6O[C@H](CO)[C@H](O)[C@H](O)[C@H]6O[C@@H]6O[C@@H](C)[C@H](O)[C@@H](O)[C@H]6O[C@@H]6OC[C@](O)(CO)[C@H]6O)[C@H]5O[C@@H]5O[C@H](CO)[C@H](O)[C@H](O)[C@H]5O)C(C)(C)C4CC[C@@]2(C)[C@]1(C)C[C@H]3OC(C)=O (stereo partly drawn)
0.0885% [at 6.55 µM] (inactive)

// returns reported activity change, negative = cytotoxicity for input CC1=C(CC(=O)O)c2cc(F)ccc2C1=Cc1ccc(S(C)(=O)=O)cc1
inactive

// returns reported activity change, negative = cytotoxicity for input Cc1cc(C)c(S(=O)(=O)N(Cc2ccc(-c3cccc(S(C)(=O)=O)c3)cc2)Cc2ccc(C(F)(F)F)o2)c(C)c1
inactive

// returns reported activity change, negative = cytotoxicity for input COc1ccc(/C=C/C(=O)O[C@@H]2[C@@H](O)[C@H](C)O[C@@H](OC3C4C=COC(O[C@@H]5O[C@H](CO)[C@@H](O)[C@H](O)[C@H]5O)C4C4(CO)OC34)[C@@H]2O)cc1OC (stereo partly drawn)
inactive

// returns reported activity change, negative = cytotoxicity for input COc1ccc(/C=C/C(=O)O[C@@H]2[C@@H](OC(C)=O)[C@@H](OC(C)=O)[C@H](O[C@H]3[C@@H]4C=CO[C@@H](O[C@@H]5O[C@H](CO)[C@@H](O)[C@H](O)[C@H]5O)[C@@H]4[C@@]4(CO)O[C@@H]34)O[C@H]2C)cc1O
inactive

// returns reported activity change, negative = cytotoxicity for input C=C[C@@]1(C)CC(=O)C2[C@](C)(O1)[C@@H](OC(C)=O)[C@@H](O)[C@H]1C(C)(C)CCC[C@]21C (stereo partly drawn)
0.473% [at 11.6 µM] (inactive)
